- study_target: Proteinase-activated receptor 2 (Homo sapiens, UniProt P55085)
- Sequence (P55085 whole entry): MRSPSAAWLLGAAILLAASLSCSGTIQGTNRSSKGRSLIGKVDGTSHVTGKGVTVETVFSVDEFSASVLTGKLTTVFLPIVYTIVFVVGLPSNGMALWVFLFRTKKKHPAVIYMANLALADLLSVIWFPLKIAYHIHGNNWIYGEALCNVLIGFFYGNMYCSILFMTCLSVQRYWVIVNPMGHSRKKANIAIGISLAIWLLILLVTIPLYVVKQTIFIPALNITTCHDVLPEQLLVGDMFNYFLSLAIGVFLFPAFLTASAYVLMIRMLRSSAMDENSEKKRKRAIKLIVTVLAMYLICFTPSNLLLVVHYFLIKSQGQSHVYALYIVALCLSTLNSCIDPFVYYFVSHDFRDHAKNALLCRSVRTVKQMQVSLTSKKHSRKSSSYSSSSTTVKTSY
- assay_notes: Antagonist activity at PAR2 receptor in human HT-29 cells assessed as inhibition of intracellular calcium release
- Type: functional, cell-based
- stated_conditions: read-out: IC50
readout_label: IC50
Please answer using a numeric value trailed by its unit.

Recorded result, CC[C@H](C)[C@H](NC(=O)[C@H](CC1CCCCC1)NC(=O)c1ccno1)C(=O)Nc1ccc(CC(=O)N2CCOCC2)cc1 , IC50: 57 µM

Reference for the values: ChEMBL document CHEMBL1268911
